system: Plasmodium berghei; assay: Screen against P. berghei liver stage (PbLuc), transformed with Luciferase, at 10uM; format: functional, HepG2; settings: tested at 10 uM
About 8,600 (12%) of roughly 69,000 compounds showed an effect of 50% or more. The sample holds strong results, similar compounds and a random draw of the others, so the mix is not that of the screen.

>  <COMPOUND>
Cc1nn(C)c2c(NCc3ccncc3)nc(C3CC3)nc12

>  <MEASURED TARGET>
Plasmodium berghei

>  <INHIBITION, %>
-6.91

$$$$
>  <COMPOUND>
CC(C)Sc1ncccc1C(=O)NCc1ccoc1

>  <MEASURED TARGET>
Plasmodium berghei

>  <INHIBITION, %>
42.9

$$$$
>  <COMPOUND>
Cc1cc(NCCNS(C)(=O)=O)nc2cc3c(cc12)CCC3

>  <MEASURED TARGET>
Plasmodium berghei

>  <INHIBITION, %>
-6.88

$$$$
>  <COMPOUND>
FC(F)(F)c1ccnc(N2CCCCCC2)c1

>  <MEASURED TARGET>
Plasmodium berghei

>  <INHIBITION, %>
-6.52

$$$$
>  <COMPOUND>
CN1CCN(Cc2cn3c(n2)CN(Cc2ccccn2)CC3)CC1

>  <MEASURED TARGET>
Plasmodium berghei

>  <INHIBITION, %>
24.9

$$$$
>  <COMPOUND>
Cc1cc(NCCCNS(C)(=O)=O)nc2ccccc12

>  <MEASURED TARGET>
Plasmodium berghei

>  <INHIBITION, %>
62

$$$$
>  <COMPOUND>
CN1CCN(Cc2cn3c(n2)CN(Cc2ccncc2)CC3)CC1

>  <MEASURED TARGET>
Plasmodium berghei

>  <INHIBITION, %>
82.9

$$$$
>  <COMPOUND>
CCCc1n[nH]c(C2CN(CCS(=O)(=O)CC)CCO2)n1 (stereo not drawn)

>  <MEASURED TARGET>
Plasmodium berghei

>  <INHIBITION, %>
44.1

$$$$
>  <COMPOUND>
O=C(CCCn1cnnn1)N1CCC(c2ccncc2)CC1

>  <MEASURED TARGET>
Plasmodium berghei

>  <INHIBITION, %>
31.4

$$$$
>  <COMPOUND>
O=C(Nc1cc(F)ccc1OCC1CCCO1)N1CCSCC1 (stereo not drawn)

>  <MEASURED TARGET>
Plasmodium berghei

>  <INHIBITION, %>
41.2

$$$$
>  <COMPOUND>
Cc1nn(C)c2c(NCc3ccccc3F)nc(C3CC3)nc12

>  <MEASURED TARGET>
Plasmodium berghei

>  <INHIBITION, %>
75.1

$$$$
>  <COMPOUND>
Cc1n[nH]c(C)c1C1COCCN1C(=O)c1ccc2c(c1)CCO2 (stereo not drawn)

>  <MEASURED TARGET>
Plasmodium berghei

>  <INHIBITION, %>
32.125

$$$$
>  <COMPOUND>
Cc1ccc(C(=O)N2CCC3(CCN3c3ncccn3)C2)cn1 (stereo not drawn)

>  <MEASURED TARGET>
Plasmodium berghei

>  <INHIBITION, %>
78.9

$$$$
>  <COMPOUND>
CC(C)n1cc(CN2CCCN(C(=O)COC3CCCC3)CC2)cn1

>  <MEASURED TARGET>
Plasmodium berghei

>  <INHIBITION, %>
45.7

$$$$
>  <COMPOUND>
O=C(c1cnc2ccccc2c1)N1CCC2(CCN2c2ncccn2)C1 (stereo not drawn)

>  <MEASURED TARGET>
Plasmodium berghei

>  <INHIBITION, %>
-78.5

$$$$
>  <COMPOUND>
Cc1ccsc1C(=O)NCc1ccnc(N2CCN(C)CC2)c1

>  <MEASURED TARGET>
Plasmodium berghei

>  <INHIBITION, %>
4.45

$$$$
>  <COMPOUND>
Cc1nc(NC2CC2)c2c(n1)c(C)nn2C

>  <MEASURED TARGET>
Plasmodium berghei

>  <INHIBITION, %>
29.3

$$$$
>  <COMPOUND>
CC(C)Sc1ncccc1C(=O)NCc1ccc(O)cc1

>  <MEASURED TARGET>
Plasmodium berghei

>  <INHIBITION, %>
60.7

$$$$
>  <COMPOUND>
Cn1cccc1C(=O)N1CCC2(CCN2c2ncccn2)C1 (stereo not drawn)

>  <MEASURED TARGET>
Plasmodium berghei

>  <INHIBITION, %>
72.2

$$$$
>  <COMPOUND>
Cc1nn(C)c(C)c1C1CCCN1Cc1nc(-c2ccccn2)no1 (stereo not drawn)

>  <MEASURED TARGET>
Plasmodium berghei

>  <INHIBITION, %>
11.9

$$$$
>  <COMPOUND>
N[C@@H]1c2ccccc2C2(CCN(c3cnc4ccccc4n3)CC2)[C@H]1O

>  <MEASURED TARGET>
Plasmodium berghei

>  <INHIBITION, %>
44.9

$$$$
>  <COMPOUND>
CNc1cc(C)nc(C2COCCN2CCc2ccc(F)cc2)n1 (stereo not drawn)

>  <MEASURED TARGET>
Plasmodium berghei

>  <INHIBITION, %>
19.6

$$$$
>  <COMPOUND>
OC1(CNc2cc(C(F)(F)F)nc3ccccc23)CCOCC1

>  <MEASURED TARGET>
Plasmodium berghei

>  <INHIBITION, %>
-32.3

$$$$
>  <COMPOUND>
Cn1ccnc1C(=O)N1CCC2(CCN2CC2CC2)C1 (stereo not drawn)

>  <MEASURED TARGET>
Plasmodium berghei

>  <INHIBITION, %>
13.7

$$$$
>  <COMPOUND>
COc1ccc(C2SCC(=O)N2c2ncc(C)s2)cc1 (stereo not drawn)

>  <MEASURED TARGET>
Plasmodium berghei

>  <INHIBITION, %>
24.7

$$$$
>  <COMPOUND>
N[C@@H]1c2ccccc2C2(CCN(c3ccc(C(F)(F)F)cn3)CC2)[C@H]1O

>  <MEASURED TARGET>
Plasmodium berghei

>  <INHIBITION, %>
78.3

$$$$
>  <COMPOUND>
O=C(c1ccc2c(c1)OCO2)N1CCC(Nc2cccnn2)CC1

>  <MEASURED TARGET>
Plasmodium berghei

>  <INHIBITION, %>
31.9

$$$$
>  <COMPOUND>
Cc1nn(C)c2c(NCc3ccc(F)cc3)nc(C3CC3)nc12

>  <MEASURED TARGET>
Plasmodium berghei

>  <INHIBITION, %>
56.9

$$$$
>  <COMPOUND>
CC(=O)NCC1CCN(C(=O)NCCOc2ccc3c(c2)CCC3)CC1

>  <MEASURED TARGET>
Plasmodium berghei

>  <INHIBITION, %>
25.1

$$$$
>  <COMPOUND>
Cc1cc(C)n(-c2cncc(NCCNS(C)(=O)=O)n2)n1

>  <MEASURED TARGET>
Plasmodium berghei

>  <INHIBITION, %>
29

$$$$
>  <COMPOUND>
N[C@@H]1c2ccccc2C2(CCN(C(=O)c3ccc(Cl)cn3)CC2)[C@H]1O

>  <MEASURED TARGET>
Plasmodium berghei

>  <INHIBITION, %>
37.1

$$$$
>  <COMPOUND>
COC(C)(CNS(=O)(=O)c1cccnc1)c1ccccc1F (stereo not drawn)

>  <MEASURED TARGET>
Plasmodium berghei

>  <INHIBITION, %>
12.1

$$$$
>  <COMPOUND>
CC(OCc1ccccc1)C(=O)NCc1ccc(N(C)C)cc1 (stereo not drawn)

>  <MEASURED TARGET>
Plasmodium berghei

>  <INHIBITION, %>
33.3

$$$$
>  <COMPOUND>
CNc1ncc(C(=O)N2CCOC(C(=O)Nc3ccccc3)C2)cn1 (stereo not drawn)

>  <MEASURED TARGET>
Plasmodium berghei

>  <INHIBITION, %>
-8.58

$$$$
>  <COMPOUND>
COc1ccc(CN2CCn3cc(CN4CCN(C)CC4)nc3C2)cc1

>  <MEASURED TARGET>
Plasmodium berghei

>  <INHIBITION, %>
40.4

$$$$
>  <COMPOUND>
Cn1ccnc1C(=O)N1CCC2(CCN2c2ncccn2)C1 (stereo not drawn)

>  <MEASURED TARGET>
Plasmodium berghei

>  <INHIBITION, %>
71.3

$$$$
>  <COMPOUND>
NS(=O)(=O)CC1CCN(c2ncccc2C(F)(F)F)CC1

>  <MEASURED TARGET>
Plasmodium berghei

>  <INHIBITION, %>
20.6

$$$$
>  <COMPOUND>
N[C@@H]1c2ccccc2C2(CCN(C(=O)c3cncc(Cl)c3)CC2)[C@H]1O

>  <MEASURED TARGET>
Plasmodium berghei

>  <INHIBITION, %>
8.5

$$$$
>  <COMPOUND>
Cc1cc(NCC2(O)CCOCC2)nc2ccccc12

>  <MEASURED TARGET>
Plasmodium berghei

>  <INHIBITION, %>
71.7

$$$$
>  <COMPOUND>
Cc1cc(NCC2(O)CCOCC2)c2ccccc2n1

>  <MEASURED TARGET>
Plasmodium berghei

>  <INHIBITION, %>
26

$$$$
>  <COMPOUND>
O=C(c1ccnnc1)N1C[C@@H]2CN(c3ncccn3)C[C@@H]2C1

>  <MEASURED TARGET>
Plasmodium berghei

>  <INHIBITION, %>
21.7

$$$$
>  <COMPOUND>
Cc1nc(NC2CCCC2)c2c(n1)c(C)nn2C

>  <MEASURED TARGET>
Plasmodium berghei

>  <INHIBITION, %>
41.5

$$$$
>  <COMPOUND>
O=C(c1cnc(-c2ncccn2)s1)N1CCCC(n2cccn2)C1 (stereo not drawn)

>  <MEASURED TARGET>
Plasmodium berghei

>  <INHIBITION, %>
21

$$$$
>  <COMPOUND>
Cc1ccc(CN2CCn3cc(CN4CCN(C)CC4)nc3C2)cc1

>  <MEASURED TARGET>
Plasmodium berghei

>  <INHIBITION, %>
72.9

$$$$
>  <COMPOUND>
O=C(CCN1CCCCC1)Nc1c2c(cc3c1CCC3)CCC2

>  <MEASURED TARGET>
Plasmodium berghei

>  <INHIBITION, %>
18.8

$$$$
>  <COMPOUND>
COc1cc2nc(NCCNS(C)(=O)=O)cc(C)c2cc1OC

>  <MEASURED TARGET>
Plasmodium berghei

>  <INHIBITION, %>
50.3

$$$$
>  <COMPOUND>
Cc1nn(C)c2c(N3CCCC3)nc(C3CC3)nc12

>  <MEASURED TARGET>
Plasmodium berghei

>  <INHIBITION, %>
34.5

$$$$
>  <COMPOUND>
Cc1cc(C)n(CC2CCCN2CCCS(C)(=O)=O)n1 (stereo not drawn)

>  <MEASURED TARGET>
Plasmodium berghei

>  <INHIBITION, %>
3.5625

$$$$
